biological target: Neurotensin receptor type 1 (Homo sapiens); assay type: functional;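 note: Image-based confirmatory dose-response assay measuring agonist activity at NTR1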;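 note: NTR1-expressing U2OS osteosarcoma cells imaged for beta-arrestin GFP spot formation; agonist potency where compounds increase beta-arrestin recruitment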
Sequence (P30989 whole entry): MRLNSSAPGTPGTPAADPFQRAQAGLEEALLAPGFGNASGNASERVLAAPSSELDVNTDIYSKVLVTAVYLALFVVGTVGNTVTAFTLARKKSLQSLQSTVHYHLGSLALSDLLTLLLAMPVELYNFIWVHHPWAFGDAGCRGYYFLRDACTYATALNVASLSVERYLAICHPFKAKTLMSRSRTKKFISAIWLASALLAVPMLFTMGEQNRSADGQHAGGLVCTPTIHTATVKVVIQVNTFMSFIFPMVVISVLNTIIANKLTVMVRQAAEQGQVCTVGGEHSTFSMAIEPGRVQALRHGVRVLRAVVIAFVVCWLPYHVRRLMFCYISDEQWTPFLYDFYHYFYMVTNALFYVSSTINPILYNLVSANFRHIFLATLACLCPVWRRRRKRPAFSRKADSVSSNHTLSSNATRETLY
Activity calls are given as the source filed them.
Possible outcomes: active, inactive

[[record]]
compound = "O=[N+]([O-])c1ccc(-c2nc(Nc3cccc(O)c3)c3ccccc3n2)cc1"
category_label = "active"

[[record]]
compound = "CCCCCc1cc(=O)oc2c(C(CCN3CCCCC3)c3ccc(OC)cc3)c(OC)cc(OC)c12 (centres undefined)"
category_label = "active"

[[record]]
compound = "CCCOC(=O)c1cccc(Nc2nc(-c3cccnc3)nc3ccccc23)c1"
category_label = "inactive"

[[record]]
compound = "O=C(Nc1ccc(Oc2c(F)c(F)c(F)c(F)c2F)cc1)OC1CCN2Cc3ccccc3N=C12 (centres undefined)"
category_label = "active"

